B1: tRNA (parent)
chain: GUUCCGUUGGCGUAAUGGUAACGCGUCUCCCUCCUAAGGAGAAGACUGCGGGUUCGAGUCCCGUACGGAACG

Variants of: B1
Assay: yeast fitness relative to wild type (ratio to wild type); higher = fitter; tRNA-Arg(CCU), competitive growth, 37 C, YPD
Fewer inactive variants are shown than the library holds.
Quick list: yeast fitness per entry.

These recorded examples may help you get a feel for the data.
Mutant: C30G A57G
yeast fitness: 0.616
--
Mutant: A14C C34G A43U G48A
yeast fitness: ≤ 0.5
--
Mutant: A14G A20U C29G C33U
yeast fitness: 0.543

Would you mind telling me what yeast fitness value was observed for C5U G12A A45C ? 0.782

Would you mind telling me what yeast fitness value was observed for A37C U64A ? 0.729

Would you mind telling me what yeast fitness value was observed for C5U A15G C22U A37U A65C ? ≤ 0.5

Would you mind telling me what yeast fitness value was observed for C5G A14G A36U ? 0.647

Would you mind telling me what yeast fitness value was observed for C22U A37C A40G G52A U53A ? ≤ 0.5

Would you mind telling me what yeast fitness value was observed for U64A G68C ? 0.709

Would you mind telling me what yeast fitness value was observed for G10A C22G ? 0.637

Would you mind telling me what yeast fitness value was observed for A14C C30A A69U ? ≤ 0.5
